Taken from patent US9402913B2.

tested on: human recombinant carboxylesterases; assay: In vitro metabolic stability in human recombinant carboxylesterases (rate of metabolite formation, LC-MS/MS); type: in vitro ADME; conditions: metabolite Cyclosporine A; 1 μM test compound, 0.1 mg/mL human recombinant carboxylesterase mixture, pH=6.0, 37° C., triplicate
In this section we review reported Rate of formation Metabolite 2 (Cyclosporine A) values for a set of compounds.
State the answer as a number, implicitly in nM/min/mg.

* C/C=C/C[C@@H](C)[C@@H](OC(=O)OCOC(=O)CCC(=O)OCCOCCOCCOC(=O)CCC(=O)OCC(=O)[C@@]1(O)[C@H](C)CC2C3CCC4=CC(=O)C=C[C@]4(C)[C@@]3(F)[C@@H](O)C[C@@]21C)C1C(=O)NC(CC)C(=O)N(C)CC(=O)N(C)[C@@H](CC(C)C)C(=O)NC(C(C)C)C(=O)N(C)C(CC(C)C)C(=O)NC(C)C(=O)NC(C)C(=O)N(C)C(CC(C)C)C(=O)N(C)C(CC(C)C)C(=O)N(C)C(C(C)C)C(=O)N1C (relative stereo) [Compound 32] | 13.4

Proceed to the following item.
According to the records, this compound C/C=C/C[C@@H](C)C(OC(=O)CN(C)C(=O)CNC(=O)OCOC(=O)CCC(=O)OCC(=O)[C@@]1(O)CCC2C3CCC4=CC(=O)C=C[C@]4(C)C3[C@@H](O)C[C@@]21C)C1C(=O)NC(CC)C(=O)N(C)CC(=O)N(C)[C@@H](CC(C)C)C(=O)NC(C(C)C)C(=O)N(C)C(CC(C)C)C(=O)NC(C)C(=O)N[C@@H](C)C(=O)N(C)[C@@H](CC(C)C)C(=O)N(C)C(CC(C)C)C(=O)N(C)C(C(C)C)C(=O)N1C (relative stereo) [Compound 7] displays Rate of formation Metabolite 2 (Cyclosporine A) of 1.31

---

test system: human recombinant carboxylesterases; test: In vitro metabolic stability in human recombinant carboxylesterases (rate of metabolite formation, LC-MS/MS); type: in vitro ADME; conditions: metabolite Cyclosporine A; 1 μM test compound, 0.1 mg/mL human recombinant carboxylesterase mixture, pH=6.0, 37° C., triplicate
In this section we review reported Rate of formation Metabolite 2 (Cyclosporine A) values for a set of compounds.
State the answer as a number, implicitly in nM/min/mg.

• C/C=C/C[C@@H](C)[C@@H](OC(=O)OCOC(=O)CCC(=O)OCCOCCOCCOCCOCCOC(=O)CCC(=O)OCC(=O)[C@@]1(O)CCC2C3CCC4=CC(=O)C=C[C@]4(C)C3[C@@H](O)C[C@@]21C)C1C(=O)NC(CC)C(=O)N(C)CC(=O)N(C)[C@@H](CC(C)C)C(=O)NC(C(C)C)C(=O)N(C)C(CC(C)C)C(=O)NC(C)C(=O)NC(C)C(=O)N(C)C(CC(C)C)C(=O)N(C)C(CC(C)C)C(=O)N(C)C(C(C)C)C(=O)N1C (relative stereo) = 46.5

According to the records, this compound C/C=C/C[C@@H](C)[C@@H](OC(=O)OCOC(=O)CCC(=O)OCCOCCOCCOCCOC(=O)CCC(=O)OCC(=O)[C@@]1(O)[C@H](C)CC2C3CCC4=CC(=O)C=C[C@]4(C)[C@@]3(F)[C@@H](O)C[C@@]21C)C1C(=O)NC(CC)C(=O)N(C)CC(=O)N(C)[C@@H](CC(C)C)C(=O)NC(C(C)C)C(=O)N(C)C(CC(C)C)C(=O)NC(C)C(=O)NC(C)C(=O)N(C)C(CC(C)C)C(=O)N(C)C(CC(C)C)C(=O)N(C)C(C(C)C)C(=O)N1C (relative stereo) displays Rate of formation Metabolite 2 (Cyclosporine A) of 13.9
